Tested on: F1*sub RNA substrate (template-directed ligation)
method-notes: fraction ligated after 30 min (ligated reads / total reads); higher = more ligase activity; sequences stand for … in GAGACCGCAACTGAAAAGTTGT…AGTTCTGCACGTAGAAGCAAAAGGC
condition-summary: 42 °C
Definition: the class of an entry is the range in bottom: < 0.1; middle: ≥ 0.1 and < 0.7; top: ≥ 0.7 that contains its fraction ligated.

The entry to classify is TTCACTTGTCTAAGACACTTTGATGGGTTGA [3d410] ; which class holds it?
middle

Please indicate the class for ATCACTTGTCGTAAGACACTTTGATGGGTTG [3d265] based on its fraction ligated.
middle

Into which category would you place TATCACTTTCGTAAGCACTTGGATGGGTTGA [3d1532] ?
top

Sort TATCATTGTCTAAGACACTTTGGTGGGTTGA [3d1196] into one of the categories.
middle

Exercise: read the entry TATCACTTGTGAAGACACTTTGGATGGGTTA [3d1729] and state which class it falls under.
top

The entry to classify is TACACTTGTCGTAAGACACTTTGGGGGTTGA [3d727] ; which class holds it?
bottom

Which bin should I file TATCACTTGTCTAAGAATTTGGATGGGTTGA [3d1856] under?
top

Any idea which band TATACTTGTCGAAGACCTTTGGATGGGTTGA [3d861] is in?
middle

Category of ATCACTGTCGTAAGACACTTTGGAGGGTTGA [3d120] , please.
middle

Where would TATCACTGTCGTAAGAACTTTGGTGGGTTGA [3d1421] land among the classes by reported fraction ligated?
bottom

Record TATCACTTGTGTAGACACTTTGGAGGGTTGA [3d1740] — which class?
bottom

Which band does TATACTTGCGTAAACACTTTGGATGGGTTGA [3d816] fall in?
middle

Which class is correct for the following sequence? TATCATTGTCTAGACACTTTGGATGGGTTGA [3d1188]
top

Where would TATCCTTGTCGAAGACACTTTGGAGGGTTGA [3d1038] land among the classes by reported fraction ligated?
bottom

Hey, which category is TATCATTGTCGTAACACTTTGGATGGGTTGA [3d1215] in, do you know?
top

Hi, small favor: classify ATCACTTGTCGTAAGACACTTTGGTGGGTTG [3d269] by its fraction ligated when you get a moment.
bottom

Which band does TATCACTTGTGTAAGACACTTTGGGGGTTGA [3d1799] fall in?
bottom

Quick check: band for TATCACTTGTCGAAGACACTTTATGGGTTGA [3d1964]
middle

Which fraction ligated band matches TTCACTTGTCGTAAGACCTTTGGTGGGTTGA [3d472] ?
bottom

Classify this sequence: ATACTTGTCGTAAGCACTTTGGATGGGTTGA [3d56]
middle

Lab note: which band did TATCCTTGTCGTAAGACACTTTGGTGGTTGA [3d1111] land in?
bottom

Which of the defined bands does the recorded fraction ligated of TATCACTTGTCTAGACACTTTGGATGGTTGA [3d1833] sit within?
middle

Which category fits this record: TATCCTTGCGTAAGCACTTTGGATGGGTTGA [3d989]
top

Band assignment needed for TATCACTGCGTAGACACTTTGGATGGGTTGA [3d1330] please.
top

Given TATACTGTCGTAAGACACTTTGATGGGTTGA [3d790] , name the class its fraction ligated places it in.
top

Looking at TATCATTGTCGTAAGCACTTTGGATGGTTGA [3d1244] , which class would you pick?
bottom

Given TATCACTTGTCGTAAACATTGGATGGGTTGA [3d2074] , name the class its fraction ligated places it in.
top

Could you place TATCACTTGTCGTAGACACTTTGATGGGTTG [3d2047] in its proper category? Many thanks.
top

Dear colleague, I would appreciate it if you could identify the bin for TATCACTTTGTAAGACATTTGGATGGGTTGA [3d1471] and reply at your convenience.
top

Sort TATCACTTGTCGTAGACACTTTGGAGGGTTGA [2d230] into one of the categories.
middle

# bin label for TATCACTTTCGTAAGACACTTTGGATGGTTA [3d1581]
bottom

Quick check: band for TATCATTGTCGTAAGACACTGGATGGGTTGA [3d1269]
top

Hi there! Could you help me figure out the category for TATCACTTGTCGTAAAATTTGGATGGGTTGA [3d2059] please?
top
